Where do these numbers come from? They come from paper PMC10090446.

# ASSAY PROTOCOL: Steady-state plasma concentrations of polymyxin B (total of B1, B2, B1-Ile) by LC-MS/MS
# Format: in vivo
# TEST SETTINGS: human, iv, 50 mg, patient ID 15, TIME 207, DOSE 50 every 12 from 133 (DUR 1, ADDL 11), WT 50, CCR 35.85, ALB 29.5, APACHE 39, single measurement, read-out: OUT (observed polymyxin B plasma concentration)
Positions of bridges follow the written chain, without caps; N, C: chain ends. Non-standard residues stand in square brackets, D forms with d. Residues, ends and D or L forms follow the SMILES beside them. *: point of attachment. X1 = CC[C@H](C)CCCCC(=O)*; Dab = NCC[C@H](N)C(=O)O
METRIC: level at 207 h (ng/mL)
Give bare numbers, in ng/mL.

Quick note, level at 207 h for CC[C@H](C)CCCCC(=O)N[C@@H](CCN)C(=O)N[C@H](C(=O)N[C@@H](CCN)C(=O)N[C@H]1CCNC(=O)[C@H]([C@@H](C)O)NC(=O)[C@H](CCN)NC(=O)[C@H](CCN)NC(=O)[C@H](CC(C)C)NC(=O)[C@@H](Cc2ccccc2)NC(=O)[C@H](CCN)NC1=O)[C@@H](C)O [polymyxin B] (X1-[Dab]T[Dab][Dab][Dab][dF]L[Dab][Dab]T; lactam 4-C) landed at 2250

====

# ASSAY PROTOCOL: Steady-state plasma concentrations of polymyxin B (total of B1, B2, B1-Ile) by LC-MS/MS
# Type: in vivo
# TEST SETTINGS: human, iv, 50 mg, patient ID 2, TIME 47.67, DOSE 50 every 12 from 0 to 36, DUR 1, WT 56, CCR 34.05, ALB 30.1, APACHE 20, single sample, read-out: OUT (observed polymyxin B plasma concentration)
Positions of bridges follow the written chain, without caps; N, C: chain ends. Non-standard residues stand in square brackets, D forms with d. Residues, ends and D or L forms follow the SMILES beside them. *: point of attachment. X1 = CC[C@H](C)CCCCC(=O)*; Dab = NCC[C@H](N)C(=O)O
METRIC: level at 47.67 h

According to the records, this compound CC[C@H](C)CCCCC(=O)N[C@@H](CCN)C(=O)N[C@H](C(=O)N[C@@H](CCN)C(=O)N[C@H]1CCNC(=O)[C@H]([C@@H](C)O)NC(=O)[C@H](CCN)NC(=O)[C@H](CCN)NC(=O)[C@H](CC(C)C)NC(=O)[C@@H](Cc2ccccc2)NC(=O)[C@H](CCN)NC1=O)[C@@H](C)O [polymyxin B] (X1-[Dab]T[Dab][Dab][Dab][dF]L[Dab][Dab]T; lactam 4-C) displays level at 47.67 h of 3020 ng/mL

====

# ASSAY PROTOCOL: Steady-state plasma concentrations of polymyxin B (total of B1, B2, B1-Ile) by LC-MS/MS
# Assay type: in vivo
# TEST SETTINGS: human, iv, patient ID 5, TIME 186, DOSE 100 at 0 then 50 from 12, ADDL 15, II 12, DUR 1, WT 60, CCR 41.15, ALB 36.1, APACHE 21, single sample, read-out: OUT (observed polymyxin B plasma concentration)
Positions of bridges follow the written chain, without caps; N, C: chain ends. Non-standard residues stand in square brackets, D forms with d. Residues, ends and D or L forms follow the SMILES beside them. *: point of attachment. X1 = CC[C@H](C)CCCCC(=O)*; Dab = NCC[C@H](N)C(=O)O
METRIC: level at 186 h (ng/mL)
Numbers only, in ng/mL.

// recorded level at 186 h for CC[C@H](C)CCCCC(=O)N[C@@H](CCN)C(=O)N[C@H](C(=O)N[C@@H](CCN)C(=O)N[C@H]1CCNC(=O)[C@H]([C@@H](C)O)NC(=O)[C@H](CCN)NC(=O)[C@H](CCN)NC(=O)[C@H](CC(C)C)NC(=O)[C@@H](Cc2ccccc2)NC(=O)[C@H](CCN)NC1=O)[C@@H](C)O [polymyxin B] (X1-[Dab]T[Dab][Dab][Dab][dF]L[Dab][Dab]T; lactam 4-C) : 3290
